Where do these numbers come from? They come from ChEMBL document CHEMBL4145548.

assay: Aqueous solubility in pH 7.4 PBS buffer after 24 hrs by HPLC analysis; type: physicochemical
# Lookup of reported solubility at 24 h keyed by entry
Write the answer as a number in µM, unit excluded.

Below are worked cases with known answers.
| substance-smiles | solubility at 24 h, µM |
| --- | --- |
| Cc1nc(OCc2cn(CCCNc3ccnc4cc(Cl)ccc34)nn2)nc(-c2ccccc2[N+](=O)[O-])c1C(=O)OC(C)C | 0.58 |
| Cc1nc(OCc2cn(-c3ccnc4cc(Cl)ccc34)nn2)nc(-c2ccccc2[N+](=O)[O-])c1C(=O)OC(C)C | 2.93 |
| COC(=O)c1c(C)nc(OCc2cn(-c3ccnc4cc(Cl)ccc34)nn2)nc1-c1ccccc1 | 3.31 |
| CCOC(=O)c1c(C)nc(OCc2cn(CCNc3ccnc4cc(Cl)ccc34)nn2)nc1C | 19.1 |
| CCOC(=O)c1c(C)nc(OCc2cn(-c3ccnc4cc(Cl)ccc34)nn2)nc1C | 7.18 |
| Cc1nc(OCc2cn(CCNc3ccnc4cc(Cl)ccc34)nn2)nc(-c2ccc([N+](=O)[O-])cc2)c1C(=O)OC(C)C | 7.03 |

Give me measured solubility at 24 h, please, for this compound: Cc1nc(OCc2cn(CCCNc3ccnc4cc(Cl)ccc34)nn2)nc(-c2ccccc2)c1C(=O)OC(C)C 1.21

Give me measured solubility at 24 h, please, for this compound: Cc1nc(OCc2cn(CCNc3ccnc4cc(Cl)ccc34)nn2)nc(-c2ccccc2)c1C(=O)OC(C)C 3.21
